Recorded IC50, one value per entry.
System: HAP1 MTAP-deleted cell line
Test: Viability assay (CellTiter-Glo), HAP1 MTAP-deleted
Type: cell-based
Settings: Homo sapiens, 168 h, HAP1 MTAP-deleted cells, 7 days

A selection of reference data follows.
[[record]]
compound = "COc1ncc(NC(=O)C(=O)N2CCCC[C@@H]2c2ccc3sc(C4CCN(C)CC4)nc3c2)cc1C(N)=O [Compound 29]"
quantity = "IC50"
result = "100 to 1000 nM"

[[record]]
compound = "CCc1cc(NC(=O)C(=O)N2C[C@@H](C)CC[C@@H]2c2ccc3cn([C@H]4C[C@H](C)CN(C)C4)nc3c2)cnc1N (relative stereo) [Compound 85]"
quantity = "IC50"
result = "< 100 nM"


query: Please report IC50 for the following compound: COc1ncc(NC(=O)C(=O)N2C[C@@H](C)CC[C@@H]2c2ccc3sc([C@H]4C[C@@H](N(C)C)C4)nc3c2)cc1C(N)=O (single isomer, unassigned) [Compound 24]
result: < 100 nM

Data credit: patent US20250171432A1
